Each item that follows carries a reported TIME.
organism: Oryctolagus cuniculus; assay: Antagonist at angiotensin 2 receptor in rabbit aorta assessed as duration of action at 1 uM/L treated for 5 mins after angiotensin-2 challenge
Non-standard residues stand in square brackets, D forms with d. Residues, ends and D or L forms follow the SMILES beside them. Sar = CNCC(=O)O
Numbers only; they are read as h.

molecule	endpoint-unit	TIME
CC[C@H](C)[C@H](NC(=O)[C@H](Cc1ccc(O)cc1)NC(=O)[C@@H](NC(=O)[C@H](CCCNC(=N)N)NC(=O)CNC)C(C)C)C(=O)N[C@@H](Cc1cnc[nH]1)C(=O)N1CCC[C@H]1C(=O)NC(C)(C)C(=O)O	h	2

(Q) Fill blank: measured TIME of the molecule CC[C@H](C)[C@H](NC(=O)[C@H](Cc1ccc(O)cc1)NC(=O)[C@@H](NC(=O)[C@H](CCCN=C(N)N)NC(=O)CNC)C(C)C)C(=O)N[C@@H](Cc1c[nH]cn1)C(=O)N1CCC[C@H]1C(=O)N[C@H](C(=O)O)[C@@H](C)O (H-[Sar]RVYIHPT-OH) is ____.
(A) 2

(Q) Fill blank: measured TIME of the molecule CC[C@H](C)[C@H](NC(=O)[C@H](Cc1ccc(O)cc1)NC(=O)[C@@H](NC(=O)[C@H](CCCN=C(N)N)NC(=O)CNC)C(C)C)C(=O)N[C@@H](Cc1c[nH]cn1)C(=O)N1CCC[C@H]1C(=O)N[C@@H](C)C(=O)O is ____.
(A) 2

(Q) Fill blank: measured TIME of the molecule CC[C@H](C)[C@H](NC(=O)[C@@H]1CCCN1C(=O)[C@H](Cc1c[nH]cn1)NC(=O)[C@@H](NC(=O)[C@H](Cc1ccc(O)cc1)NC(=O)[C@@H](NC(=O)[C@H](CCCN=C(N)N)NC(=O)CNC)C(C)C)[C@@H](C)CC)C(=O)O is ____.
(A) 2

(Q) Fill blank: measured TIME of the molecule CC[C@H](C)[C@H](NC(=O)[C@H](Cc1ccc(O)cc1)NC(=O)[C@@H](NC(=O)[C@H](CCCNC(=N)N)NC(=O)CNC)C(C)C)C(=O)N[C@@H](Cc1cnc[nH]1)C(=O)N1CCC[C@H]1C(=O)N[C@H](C(=O)O)[C@@H](C)OC is ____.
(A) 2

(Q) Fill blank: measured TIME of the molecule CNCC(=O)N[C@@H](CCCNC(=N)N)C(=O)N[C@H](C(=O)N[C@@H](Cc1ccc(O)cc1)C(=O)N[C@H](C(=O)N[C@@H](Cc1cnc[nH]1)C(=O)N1CCC[C@H]1C(=O)N[C@H](C(=O)O)[C@@H](C)OC)[C@@H](C)OC)C(C)C is ____.
(A) 2

(Q) Fill blank: measured TIME of the molecule CC[C@H](C)[C@H](NC(=O)[C@@H]1CCCN1C(=O)[C@H](Cc1c[nH]cn1)NC(=O)[C@@H](NC(=O)[C@H](Cc1ccc(O)cc1)NC(=O)[C@@H](NC(=O)[C@H](CCCN=C(N)N)NC(=O)CNC)C(C)C)[C@@H](C)OC)C(=O)O (H-[Sar]RVYT(Me)HPI-OH) is ____.
(A) 2

(Q) Fill blank: measured TIME of the molecule CC[C@H](C)[C@H](NC(=O)[C@H](Cc1ccc(O)cc1)NC(=O)[C@@H](NC(=O)CN(C)C(=O)CNC)C(C)C)C(=O)N[C@@H](Cc1c[nH]cn1)C(=O)N1CCC[C@H]1C(=O)N[C@H](C(=O)O)[C@@H](C)O (H-[Sar][Sar]VYIHPT-OH) is ____.
(A) 3

(Q) Fill blank: measured TIME of the molecule CC[C@H](C)[C@H](NC(=O)[C@H](Cc1ccc(O)cc1)NC(=O)[C@@H](NC(=O)[C@H](CCCNC(=N)N)NC(=O)C(C)(C)N)C(C)C)C(=O)N[C@@H](Cc1cnc[nH]1)C(=O)N1CCC[C@H]1C(=O)NC(C)(C)C(=O)O is ____.
(A) 1

This collection of values is drawn from ChEMBL document CHEMBL3244213.
